# target_entity: CDK2/CycE1 (Homo sapiens, UniProt P24941)
# Construct: 1.5 nM CDK2/CycE1, amino acids 1-298/1-410, Carna BS
# assay_summary: CDK2 inhibition assay, PhosphoSens CSox-based Kinetic Assay Format (AssayQuant)
# condition_parameters: 1.5 nM CDK2/CycE1, 1.5× Km ATP, 30 minute preincubation at 30° C., reaction 240 minutes; read-out: IC50 CDK2-CycE1 (AssayQuant) Using PhosphoSens ® CSox-based Kinetic Assay Format
recorded_endpoint: IC50

Example compounds with recorded IC50:
Output IC50 of CNS(=O)(=O)c1ccc(Nc2ncc(C(F)(F)F)c(-c3cnn(C)c3C(F)F)n2)c(C)c1
100 to 500 nM

Output IC50 of Cc1cc(CS(C)(=N)=O)ccc1Nc1ncc2cc(Cl)c(=O)n(C(C)C)c2n1 (stereo not shown)
100 to 500 nM

Output IC50 of CNS(=O)(=O)c1ccc(Nc2ncc3cc(C(F)F)c(=O)n(C4CCCC4)c3n2)c(C)c1
< 100 nM

Output IC50 of CCS(=N)(=O)c1ccc(Nc2ncc3cc(Cl)c(=O)n(C(C)C)c3n2)c(C)c1 (stereo not shown)
100 to 500 nM

Next:
Output IC50 of Cc1cc(CS(C)(=O)=O)ccc1Nc1ncc2cc(Cl)c(=O)n(C(C)C)c2n1
> 1000 nM

Output IC50 of CC(C)c1cccc2cnc(NC3CCN(S(C)(=O)=O)CC3)nc12
< 100 nM

###

pIC50 listing for selected molecules.
# target_entity: CDK2/CycE1 (Homo sapiens, UniProt P24941)
# Construct: 1.5 nM CDK2/CycE1, amino acids 1-298/1-410, Carna BS; purchased Carna BS (Carna Biosciences) 04-165, lot 20CBS-0731B
# assay_summary: CDK2 inhibition assay, PhosphoSens CSox-based Kinetic Assay Format (AssayQuant)
# Format: biochemical
# condition_parameters: 1.5 nM CDK2/CycE1, 1.5× Km ATP, 30 minute preincubation at 30° C., reaction 240 minutes; read-out: IC50 CDK2-CycE1 (AssayQuant) Using PhosphoSens ® CSox-based Kinetic Assay Format
pIC50: −log10 of the molar value.

Example molecules with recorded pIC50:
Output pIC50 of CCS(=O)(=O)c1ccc(Nc2ncc(C(F)(F)F)c(-c3cnn(C)c3C(F)F)n2)c(C)c1
6.00 to 6.30

Output pIC50 of CNS(=O)(=O)c1cc(C)c(Nc2ncc3cc(Cl)c(=O)n(C(C)C)c3n2)cn1
6.30 to 7.00

Output pIC50 of CCS(=O)(=O)c1ccc(Nc2ncc(C(F)(F)F)c([C@H]3CC[C@@](C)(O)CC3)n2)c(C)c1
< 6.00

Output pIC50 of CCS(=O)(=O)c1ccc(Nc2ncc(C(F)(F)F)c([C@H]3CC[C@](C)(O)CC3)n2)c(C)c1
< 6.00

Next:
Output pIC50 of CC(=O)N(c1ccc(-c2cnn(C)c2)cc1)[C@H]1CC[C@H](Nc2ncc3cc(Cl)c(=O)n(C(C)C)c3n2)CC1
6.30 to 7.00

###

IC50 listing for selected compounds.
# target_entity: CDK2/CycE1 (Homo sapiens, UniProt P24941)
# Construct: 1.5 nM CDK2/CycE1, amino acids 1-298/1-410, Carna BS
# assay_summary: CDK2 inhibition assay, PhosphoSens CSox-based Kinetic Assay Format (AssayQuant)
# condition_parameters: 1.5 nM CDK2/CycE1, 1.5× Km ATP, 30 minute preincubation at 30° C., reaction 240 minutes; read-out: IC50 CDK2-CycE1 (AssayQuant) Using PhosphoSens ® CSox-based Kinetic Assay Format

Output IC50 of Cc1cc(S(N)(=O)=O)ccc1Nc1ncc(C(F)(F)F)c(-c2cnn(C)c2)n1
< 100 nM

Output IC50 of CCS(=O)(=O)c1ccc(Nc2ncc(C(F)(F)F)c(-c3cn(C(C)C)c(C)n3)n2)c(C)c1
< 100 nM

Output IC50 of CNS(=O)(=O)c1ccc(Nc2nccc(-c3cnc(C)n3C(C)C)n2)c(C)c1
< 100 nM

Output IC50 of CNS(=O)(=O)c1ccc(Nc2nc(OC3CCCCC3)c3ncsc3n2)c(C)c1
> 1000 nM

Output IC50 of CC(C)(O)c1cccc2cnc(NC3CCN(S(C)(=O)=O)CC3)cc12
100 to 500 nM

Kindly review the next compound as well.
Output IC50 of CCS(=O)(=O)c1ccc(Nc2ncc3cc(C(F)F)nc(N4CCCC4)c3n2)c(C)c1
< 100 nM
